Cited source for all entries: ChEMBL document CHEMBL1255517

- System: Human immunodeficiency virus 1
- procedure-details: Antiviral activity against HIV1 isolate 89.6 infected in human PM1 cells expressing CCR5 assessed as protection against virus-induced cytopathogenicity by MTT assay
- Type: functional, organism-based
- assay-conditions: Human immunodeficiency virus 1, isolate 89.6, PM1
pIC50: −log10 of the molar value.
quantity: pIC50

| chemical-smiles | quantity | observed-value |
| --- | --- | --- |
| CN1CCC(NC(=O)C(=O)Nc2ccc(Cl)cc2)CC1 | pIC50 | < 4.00 |
| CC(=O)N1CCC(NC(=O)C(=O)Nc2ccc(Cl)cc2)CC1 | pIC50 | < 4.00 |
| CC1(C)CC(NC(=O)C(=O)Nc2ccc(Cl)cc2)CC(C)(C)N1 | pIC50 | 5.00 |
| O=C(O)CCC(=O)N1CCC(NC(=O)C(=O)Nc2ccc(Cl)cc2)CC1 | pIC50 | < 4.00 |

----------
Catalogue of IC50 values
- Test system: Human immunodeficiency virus 1
- procedure-details: Antiviral activity against HIV1 3B infected in human PM1 cells expressing CCR5 assessed as protection against virus-induced cytopathogenicity by MTT assay
- Assay type: functional, organism-based
- assay-conditions: Human immunodeficiency virus 1, 3B
quantity: IC50

| chemical-smiles | quantity | observed-value |
| --- | --- | --- |
| CC(C)C(=O)N1CCC(NC(=O)C(=O)Nc2ccc(Cl)cc2)CC1 | IC50 | > 100 µM |
| CC(=O)N1CCC(NC(=O)C(=O)Nc2ccc(Cl)cc2)CC1 | IC50 | > 100 µM |
| O=C(O)CN1CCC(NC(=O)C(=O)Nc2ccc(Cl)cc2)CC1 | IC50 | > 100 µM |
| O=C(O)CCC(=O)N1CCC(NC(=O)C(=O)Nc2ccc(Cl)cc2)CC1 | IC50 | > 100 µM |
| CC(C)CN1CCC(NC(=O)C(=O)Nc2ccc(Cl)cc2)CC1 | IC50 | > 100 µM |
| CN1CCC(NC(=O)C(=O)Nc2ccc(Cl)cc2)CC1 | IC50 | 67 µM |
| CC1(C)CC(NC(=O)C(=O)Nc2ccc(Cl)cc2)CC(C)(C)N1 | IC50 | 8 µM |

----------
Catalogue of CC50 values
- procedure-details: Cytotoxicity against human PM1 cells expressing CCR5 by MTT assay
- Type: cell-based
quantity: CC50 (µM)

| chemical-smiles | relation-operator | observed-value |
| --- | --- | --- |
| CN1CCC(NC(=O)C(=O)Nc2ccc(Cl)cc2)CC1 | > | 300 |
| O=C(Nc1ccc(Br)cc1)C(=O)NC1CCNCC1 | = | 50 |
| CC(C)CN1CCC(NC(=O)C(=O)Nc2ccc(Cl)cc2)CC1 | > | 300 |
| O=C(Nc1ccc(Cl)cc1)C(=O)NC1CCNCC1 | = | 100 |
| CC1(C)CC(NC(=O)C(=O)Nc2ccc(Br)cc2)CC(C)(C)N1 | = | 93 |
| O=C(O)CCC(=O)N1CCC(NC(=O)C(=O)Nc2ccc(Cl)cc2)CC1 | > | 300 |
| Cc1ccc(NC(=O)C(=O)NC2CC(C)(C)NC(C)(C)C2)cc1 | = | 210 |
| CC(=O)N1CCC(NC(=O)C(=O)Nc2ccc(Cl)cc2)CC1 | > | 300 |
| Cc1ccc(NC(=O)C(=O)NC2CCNCC2)cc1 | = | 190 |
| CC(C)C(=O)N1CCC(NC(=O)C(=O)Nc2ccc(Cl)cc2)CC1 | = | 45 |
| O=C(O)CN1CCC(NC(=O)C(=O)Nc2ccc(Cl)cc2)CC1 | = | 260 |
| CC1(C)CC(NC(=O)C(=O)Nc2ccc(Cl)cc2)CC(C)(C)N1 | = | 110 |

----------
Catalogue of IC50 values
- Tested on: Human immunodeficiency virus 1
- procedure-details: Antiviral activity against HIV1 3B infected in human MT2 cells assessed as protection against virus-induced cytopathogenicity by MTT assay
- Type: functional, organism-based
- assay-conditions: Human immunodeficiency virus 1, 3B, MT2
quantity: IC50 (µM)

| molecule | quantity | observed-value |
| --- | --- | --- |
| Cc1cn([C@H]2C[C@H](N=[N+]=[N-])[C@@H](CO)O2)c(=O)[nH]c1=O [ZIDOVUDINE] | IC50 | 0.0493 |
| N=C(N)NCCC[C@H](NC(=O)[C@@H]1CSSC[C@H](NC(=O)[C@H](Cc2ccc3ccccc3c2)NC(=O)[C@H](CCCNC(=N)N)NC(=O)[C@H](CCCNC(=N)N)NC(=O)c2ccc(F)cc2)C(=O)N[C@@H](Cc2ccc(O)cc2)C(=O)N[C@@H](CCCNC(N)=O)C(=O)N[C@@H](CCCNC(=N)N)C(=O)N[C@H](CCCCNC(=O)CCC(=O)NCCCCN2CCC(NC(=O)C(=O)Nc3ccc(Cl)cc3)CC2)C(=O)N2CCC[C@H]2C(=O)N[C@@H](Cc2ccc(O)cc2)C(=O)N[C@@H](CCCNC(=N)N)C(=O)N[C@@H](CCCNC(N)=O)C(=O)N1)C(N)=O | IC50 | 0.0509 |
| CC1(C)CC(NC(=O)C(=O)Nc2ccc(Cl)cc2)CC(C)(C)N1 | IC50 | 2.1 |
| NC(=O)NCCC[C@@H]1NC(=O)[C@H](CCCN=C(N)N)NC(=O)[C@H](Cc2ccc(O)cc2)NC(=O)[C@@H]2CCCN2C(=O)[C@@H](CCCCNC(=O)CCC(=O)NCCCCCCN2CCC(NC(=O)C(=O)Nc3ccc(Cl)cc3)CC2)NC(=O)[C@H](CCCN=C(N)N)NC(=O)[C@H](CCCNC(N)=O)NC(=O)[C@H](Cc2ccc(O)cc2)NC(=O)[C@@H](NC(=O)[C@H](Cc2ccc3ccccc3c2)NC(=O)[C@H](CCCN=C(N)N)NC(=O)[C@H](CCCN=C(N)N)NC(=O)c2ccc(F)cc2)CSSC[C@@H](C(=O)N[C@@H](CCCN=C(N)N)C(N)=O)NC1=O | IC50 | 0.0365 |

----------
- System: Human immunodeficiency virus 1
- procedure-details: Antiviral activity against HIV1 MNA infected in human PM1 cells expressing CCR5 assessed as protection against virus-induced cytopathogenicity by MTT assay
- Assay type: functional, organism-based
- assay-conditions: Human immunodeficiency virus 1, MNA
The label true (1) is reserved for IC50 strictly under 10 µM; false (0) covers values equal to or above it.

| chemical-smiles | assigned-label |
| --- | --- |
| CC1(C)CC(NC(=O)C(=O)Nc2ccc(Cl)cc2)CC(C)(C)N1 | false (0) |
| Cc1ccc(NC(=O)C(=O)NC2CCNCC2)cc1 | false (0) |
| O=C(Nc1ccc(Cl)cc1)C(=O)NC1CCNCC1 | true (1) |
| Cc1ccc(NC(=O)C(=O)NC2CC(C)(C)NC(C)(C)C2)cc1 | false (0) |
| O=C(Nc1ccc(Br)cc1)C(=O)NC1CCNCC1 | true (1) |
